Origin of measurements: ChEMBL document CHEMBL1158436

# System under test: Glutathione reductase, mitochondrial (Homo sapiens, UniProt P00390)
# Sequence (P00390 whole entry): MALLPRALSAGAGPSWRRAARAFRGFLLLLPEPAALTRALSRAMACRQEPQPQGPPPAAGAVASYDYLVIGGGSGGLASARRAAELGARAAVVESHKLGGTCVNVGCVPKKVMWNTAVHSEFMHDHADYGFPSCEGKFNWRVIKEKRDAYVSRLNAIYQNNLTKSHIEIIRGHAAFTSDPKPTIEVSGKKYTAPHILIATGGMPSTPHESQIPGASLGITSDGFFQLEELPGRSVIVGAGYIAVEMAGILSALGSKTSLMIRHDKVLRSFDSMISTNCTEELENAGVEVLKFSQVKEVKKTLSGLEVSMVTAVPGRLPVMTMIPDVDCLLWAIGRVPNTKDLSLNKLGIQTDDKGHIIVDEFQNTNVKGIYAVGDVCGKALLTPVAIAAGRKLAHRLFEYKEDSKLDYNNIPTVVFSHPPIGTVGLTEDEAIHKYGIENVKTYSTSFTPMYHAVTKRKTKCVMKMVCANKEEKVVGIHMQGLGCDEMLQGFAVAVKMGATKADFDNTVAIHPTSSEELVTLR
Assay readout: pKi
Give bare numbers, as −log10 of the molar value.

Solved cases below.
* O=[N+]([O-])O[C@H]1CC/C=C\CC[C@@H]1O (racemic) | 4.35
* O=[N+]([O-])O[C@H]1CC=CC[C@@H]1O (racemic) | 4.45
* O=[N+]([O-])O[C@H]1CCCCCC[C@@H]1O | 4.66
* O=[N+]([O-])OC1CC2c3ccccc3C1C2O (centres undefined) | 4.73

Batch of 5 compounds: report pKi for each.
1. O=[N+]([O-])O[C@H]1CCCC[C@@H]1O
2. O=[N+]([O-])O[C@H]1CC2CCC1[C@@H]2O (some centres undefined)
3. O=[N+]([O-])O[C@@H](CO)c1ccccc1 (single isomer, unassigned)
4. O=[N+]([O-])O[C@@H]1CC2CCC1[C@@H]2O (some centres undefined)
5. O=[N+]([O-])O[C@@H]1CC[C@H](Br)[C@@H]2CC[C@H]1O2

1. 4.36
2. 4.88
3. 4.59
4. 4.93
5. 4.67
